Biological target: Human IP6K1 (Homo sapiens)
Construct: GST (N, cleaved yes); made in house; host or cells: C43 E. coli, pGEX-6P-2
Experiment: IP6K1 inhibition dose-response assay (ADP-Glo Max)
Assay type: biochemical
Conditions: 2mM ATP, 400μM IP6, 60nM IP6K1, 30 minutes, 37°C; read-out: IC50 IP6K1
PROPERTY LABEL: IC50 (µM)
// note: answer is a bare numeric in µM

Let me check: O=[N+]([O-])c1ccc(CNc2nc(NCc3cccc(C(F)(F)F)c3)nc3nc[nH]c23)cc1 , system Human IP6K1 (Homo sapiens), measured IC50 is 39

---

Biological target: Human IP6K1 (Homo sapiens, UniProt Q92551)
Construct: GST (N, cleaved yes); made in house; host or cells: C43 E. coli, pGEX-6P-2
Sequence (Q92551 whole entry): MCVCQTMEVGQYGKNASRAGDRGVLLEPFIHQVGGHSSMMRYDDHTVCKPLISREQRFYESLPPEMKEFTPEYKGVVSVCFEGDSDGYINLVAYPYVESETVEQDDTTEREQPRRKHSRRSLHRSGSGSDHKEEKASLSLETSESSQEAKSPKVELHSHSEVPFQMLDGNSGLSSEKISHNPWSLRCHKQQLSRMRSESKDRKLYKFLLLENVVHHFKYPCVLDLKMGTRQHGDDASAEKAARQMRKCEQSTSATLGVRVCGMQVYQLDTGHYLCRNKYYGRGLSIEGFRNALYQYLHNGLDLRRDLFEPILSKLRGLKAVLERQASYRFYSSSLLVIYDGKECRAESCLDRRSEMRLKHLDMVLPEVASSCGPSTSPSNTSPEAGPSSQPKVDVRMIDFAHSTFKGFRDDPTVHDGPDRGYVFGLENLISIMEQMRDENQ
Test: IP6K1 high-throughput screen of the Sigma LOPAC (ADP-Glo Max, single point);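 note: final compound concentration 10µM in 5% DMSO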
Format: biochemical
Settings: LOPAC single-point screen, ADP-Glo Max raw signal per well
Counter-ions that a name gives are not always drawn.
PROPERTY LABEL: Raw Signal

Some solved cases for reference:
| MOLECULE | Raw Signal |
| --- | --- |
| COc1ccc(C2CNC(=O)C2)cc1OC1CCCC1 (stereo not shown) | 57545 |
| COC1(C2=NCCN2)COc2ccccc2O1.Cl (stereo not shown) [RX 821002 hydrochloride] | 56903 |
| c1ccc2c(CC3=NCCN3)cccc2c1 [Naphazoline hydrochloride] | 52798 |

Let us examine a further case.
Reported Raw Signal for OC[C@H]1O[C@@H](n2cnc3c(N[C@H]4CC5CCC4C5)ncnc32)[C@H](O)[C@@H]1O (stereo partly drawn) [(S)-ENBA] was 53537

---

Target: Human IP6K1 (Homo sapiens, UniProt Q92551)
Construct: GST (N, cleaved yes); made in house; host or cells: C43 E. coli, pGEX-6P-2
Assay: IP6K1 high-throughput screen of the Sigma LOPAC (ADP-Glo Max, single point);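 note: final compound concentration 10µM in 5% DMSO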
Type: biochemical
Settings: LOPAC single-point screen, ADP-Glo Max raw signal per well
PROPERTY LABEL: Raw Signal
Form field (numeric): enter value without unit.

Some solved cases for reference:
| MOLECULE | Raw Signal |
| --- | --- |
| O=C(OCCN1CCOCC1)C1(c2ccccc2)CCCCC1 [PRE-084] | 55518 |
| CC(C)NCC(O)c1ccc(NS(C)(=O)=O)cc1.Cl (racemic) [(±)-Sotalol hydrochloride] | 55236 |
| CC(C[N+](C)(C)C)OC(N)=O (stereo not drawn) [Bethanechol chloride] | 59240 |
| CP(=O)(O)CCCN.Cl [SKF 97541 hydrochloride] | 57179 |
| COc1ccc(C(=O)NCc2cccnc2)cc1C(=O)NCc1cccnc1 [Picotamide] | 56073 |

Reported Raw Signal for CC(C(O)c1ccc(O)cc1)N1CCC(Cc2ccccc2)CC1.CC(C(O)c1ccc(O)cc1)N1CCC(Cc2ccccc2)CC1.O=C(O)C(O)C(O)C(=O)O (stereo not drawn) [Ifenprodil tartrate] was 56294

Reported Raw Signal for C=CC[N+](C)(C)c1ccc(CCC(=O)CCc2ccc([N+](C)(C)CC=C)cc2)cc1.[Br-].[Br-] [BW 284c51] was 57519

---

Measured Z-score, listed per entry.
Molecular target: Human IP6K1 (Homo sapiens, UniProt Q92551)
Construct: GST (N, cleaved yes); made in house; host or cells: C43 E. coli, pGEX-6P-2
Test: IP6K1 high-throughput screen of the Sigma LOPAC (ADP-Glo Max, single point);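 note: final compound concentration 10µM in 5% DMSO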
Format: biochemical
Conditions: LOPAC single-point screen, Z-score against plate average and StDev
Where a name gives a salt, the structure may show the parent alone.
Form field (numeric): enter value without unit.

Some solved cases for reference:
| COMPOUND | Z-score |
| --- | --- |
| Oc1ccc(-c2nc(-c3ccncc3)c(-c3ccc(F)cc3)[nH]2)cc1 [SB 202190] | 0.03045 |
| CCCCCCN(CCCCCC)C(=O)Cc1c(-c2ccc(F)cc2)[nH]c2ccccc12 | 0.2892 |
| CC1=C(/C=C/C(C)=C/C=C/C(C)=C/C(=O)Nc2ccc(O)cc2)C(C)(C)CCC1 [Retinoic acid p-hydroxyanilide] | 0.09545 |
| CCCn1c(C)c(C(=O)c2cccc3ccccc23)c2ccccc21 [JWH-015] | 0.01151 |

Let me check: CN(CCOc1ccc(C[C@H](Nc2ccccc2C(=O)c2ccccc2)C(=O)O)cc1)c1ccccn1 [GW1929] , system Human IP6K1 (Homo sapiens, UniProt Q92551), measured Z-score is 0.1462

Let me check: N#C/C(=C\c1c[nH]c2ccccc12)C(=O)c1ccc(O)c(O)c1 [Tyrphostin AG 808] , system Human IP6K1 (Homo sapiens, UniProt Q92551), measured Z-score is -0.01531

Let me check: CSc1nc(N)c2ncn([C@@H]3O[C@H](COP(=O)(O)OP(=O)(O)O)[C@@H](O)[C@H]3O)c2n1.[Na].[Na].[Na] , system Human IP6K1 (Homo sapiens, UniProt Q92551), measured Z-score is -0.01655

Let me check: CCn1nc(C(=O)O)c(=O)c2cc3c(cc21)OCO3 [Cinoxacin] , system Human IP6K1 (Homo sapiens, UniProt Q92551), measured Z-score is 0.02728

Let me check: Cc1ncc(CNC(=O)N(CCCl)N=O)c(N)n1 [Nimustine hydrochloride] , system Human IP6K1 (Homo sapiens, UniProt Q92551), measured Z-score is 0.05015

Let me check: C[N+](C)(C)CC=O [Betaine aldehyde chloride] , system Human IP6K1 (Homo sapiens, UniProt Q92551), measured Z-score is 0.1367

Let me check: CC(=O)Oc1cc(C(C)C)c(OCCN(C)C)cc1C [Moxisylyte hydrochloride] , system Human IP6K1 (Homo sapiens, UniProt Q92551), measured Z-score is 0.0967

Let me check: CC(Cc1ccc(O)c(O)c1)C(C)Cc1ccc(O)c(O)c1 (centres unmarked) , system Human IP6K1 (Homo sapiens, UniProt Q92551), measured Z-score is 0.3166

Let me check: O=C(O)/C=C/C(=O)O.O=C(O)/C=C/C(=O)O.O=C(O)/C=C/C(=O)O.O=C1CCCN1CC#CCN1CCCC1.O=C1CCCN1CC#CCN1CCCC1 [Oxotremorine sesquifumarate salt] , system Human IP6K1 (Homo sapiens, UniProt Q92551), measured Z-score is 0.1755

Let me check: COC(=O)c1c(C)[nH]c(C)c1C(=O)c1ccccc1Cc1ccccc1 [FPL 64176] , system Human IP6K1 (Homo sapiens, UniProt Q92551), measured Z-score is 0.2796

Let me check: Br.CCSC(=N)N [S-Ethylisothiourea hydrobromide] , system Human IP6K1 (Homo sapiens, UniProt Q92551), measured Z-score is 0.08712

Let me check: CC(C)Cc1ccc([C@H](C)C(=O)O)cc1 [S(+)-Ibuprofen] , system Human IP6K1 (Homo sapiens, UniProt Q92551), measured Z-score is 0.1767

Let me check: O=S(=O)(c1cccc2c(Cl)cccc12)N1CCCNCC1 [ML-9] , system Human IP6K1 (Homo sapiens, UniProt Q92551), measured Z-score is -0.01499

Let me check: CC1=C(/C=C/C(C)=C/C=C/C(C)=C\C(=O)O)C(C)(C)CCC1 [13-cis-retinoic acid] , system Human IP6K1 (Homo sapiens, UniProt Q92551), measured Z-score is -0.01356

Let me check: S=C=Nc1ccc2oc(C3=NCCN3)cc2c1 [BU99006] , system Human IP6K1 (Homo sapiens, UniProt Q92551), measured Z-score is 0.2358

---

Target: Human IP6K1 (Homo sapiens, UniProt Q92551)
Construct: GST (N, cleaved yes); made in house; host or cells: C43 E. coli, pGEX-6P-2
Assay: IP6K1 high-throughput screen of the Sigma LOPAC (ADP-Glo Max, single point);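 note: final compound concentration 10µM in 5% DMSO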
Assay type: biochemical
Settings: LOPAC single-point screen, Z-score against plate average and StDev
Counter-ions that a name gives are not always drawn.
Measured Z-score, listed per entry.
Form field (numeric): enter value without unit.

Some solved cases for reference:
| COMPOUND | VALUE REPORTED |
| --- | --- |
| CNC1(C)C2CCC(C2)C1(C)C (centres unmarked) [Mecamylamine hydrochloride] | 0.1379 |
| CCN1CCC[C@H]1CNC(=O)c1cc(S(N)(=O)=O)ccc1OC [(-)-Sulpiride] | 0.1459 |
| C[C@@H]1O[C@H](C[N+](C)(C)C)C[C@H]1O.[Cl-] (racemic) [(±)-Muscarine chloride] | 0.02596 |
| CN1[C@@H](CC(=O)c2ccccc2)CCC[C@H]1C[C@H](O)c1ccccc1.Cl [alpha-Lobeline hydrochloride] | -0.07805 |
| COc1ccc2c(c1OC)C(=O)OC2C1c2cc3c(cc2CCN1C)OCO3 (single isomer, unassigned; (+)) [(+)-Hydrastine] | 0.1645 |

Let me check: CC(C)(C)c1ccc(S(=O)(=O)/C=C/C#N)cc1 , system Human IP6K1 (Homo sapiens, UniProt Q92551), measured Z-score is 0.04472

Let me check: CCN(CC)CCOC(=O)c1cc(Cl)c(N)cc1OC.Cl [SDZ-205,557 hydrochloride] , system Human IP6K1 (Homo sapiens, UniProt Q92551), measured Z-score is 0.03715

Let me check: Cc1nnc(SCC2=C(C(=O)O)N3C(=O)[C@@H](NC(=O)Cn4cnnn4)[C@H]3SC2)s1 [Cefazolin sodium] , system Human IP6K1 (Homo sapiens, UniProt Q92551), measured Z-score is 0.2175
